This listing pairs molecules with measured LC retention time.
# Procedure Details: RP, Waters CORTECS T3, 100 × 2.1 mm, 2.7 µm, 0.3 mL/min, estimated dead time 0.73 min; A: water + 0.1% formic acid, pH 3; B: methanol + 0.1% formic acid, pH 3; gradient (min/%B) 0/5 5/5 25/95 25.1/100 35/100 35.1/5 45/5
# Conditions Used: stereoisomer not certain
Property Measured: LC retention time (min)

> print(dat)
                                   molecule  property.measured  data.value
1  NC(Cc1cc(I)c(Oc2cc(I)c(O)c(I)c2)c(I)c1)C(=O)O (centres undefined) [THYROXINE]  LC retention time        19.1
2  CCCCCCCCC=CCCCCCCCC(=O)OCC(O)CO (racemic) [1-OLEOYL-RAC-GLYCEROL]  LC retention time        25.6
3  O=C(O)c1ccc(=O)[nH]c1 [6-HYDROXYNICOTINATE]  LC retention time        2.17
4  NC(CCSSCCC(N)C(=O)O)C(=O)O (centres undefined) [HOMOCYSTINE]  LC retention time         0.9
5  N[C@@H](Cc1cc(I)c(Oc2ccc(O)cc2)c(I)c1)C(=O)O [3,5-DIIODO-L-THYRONINE]  LC retention time        15.9
6         Nc1cccc2ccccc12 [1-NAPHTHYLAMINE]  LC retention time        10.3
7  CNCCc1c[nH]c2ccccc12 [N-METHYLTRYPTAMINE]  LC retention time        8.19
8  CCCCCCSCC(NC(=O)CCC(N)C(=O)O)C(=O)NCC(=O)O (centres undefined) [S-HEXYL-GLUTATHIONE]  LC retention time          16
9  O=CCc1c[nH]c2ccccc12 [INDOLE-3-ACETALDEHYDE]  LC retention time        9.27

----------
# Procedure Details: RP, Waters ACQUITY UPLC BEH C18, 100 × 2.1 mm, 1.7 µm, 0.1 mL/min, estimated dead time 2.2 min; A: water + 0.045% formic acid + 0.11% ammonium hydroxide, pH 7; B: methanol; gradient (min/%B) 0/5 5/5 25/95 25.1/100 35/100 35.1/5 45/5
# Conditions Used: stereoisomer not certain
This listing pairs molecules with measured LC retention time.
Property Measured: LC retention time (min)

> print(dat)
                                    molecule  data.value
 1  CCCCCCCCC=CCCCCCCCC(=O)OCC(O)CO (racemic)        30.2
 2       CN1CCC[C@H]1c1cccnc1 [(S)-NICOTINE]        16.1
 3  CCC=CCC1C(=O)CCC1CC(=O)OC (stereo not given) [METHYL JASMONATE]        23.9
 4  CCCCCCCCCCCC(=O)OC(CC(=O)[O-])C[N+](C)(C)C (stereo not given)        26.6
 5                       OCCc1c[nH]c2ccccc12        18.5
 6              CC(=O)NCCc1c[nH]c2ccc(O)cc12        13.7
 7  COC(=O)Cc1c[nH]c2ccccc12 [METHYL INDOLE-3-ACETATE]        20.9
 8                     Cn1cnc(=N)c2[nH]cnc21        2.75
 9  O=C([O-])Cc1c[nH]c2ccccc12 [INDOLE-3-ACETATE]        11.3
10                 CC(C)=CCNc1ncnc2nc[nH]c12        20.6

----------
This listing pairs compounds with measured LC retention time.
# Procedure Details: HILIC, Waters XBridge BEH Amide, 100 × 2.1 mm, 2.5 µm, 0.5 mL/min, estimated dead time 0.44 min; A: water + 0.1% acetic acid + 10 mM ammonium acetate, pH 4; B: 5% water + 95% acetonitrile + 0.1% acetic acid + 10 mM ammonium acetate, pH 4; gradient (min/%B) 0/95 5/95 20/57 25/57 30/95 40/95
# Conditions Used: stereoisomer not certain
Property Measured: LC retention time (min)

> print(dat)
                                    compound    u  data.value
 1  NC(N)=N[C@@H](CC(=O)O)C(=O)O [N-AMIDINO-L-ASPARTATE]  min        14.5
 2                     N[C@H](CO)Cc1cnc[nH]1  min        11.4
 3                    NC(=O)CC[C@H](N)C(=O)O  min          13
 4  NCCC(=O)NC(Cc1cnc[nH]1)C(=O)O (stereo not given)  min          15
 5  O=c1[nH]c(=O)c2nccnc2[nH]1 [2,4-DIHYDROXYPTERIDINE]  min         1.7
 6  NC(C=O)C(O)C(O)C(O)COS(=O)(=O)O [D-GLUCOSAMINE 6-SULFATE]  min        13.1
 7  COC1OC(CO)C(O)C(O)C1O [METHYL BETA-D-GALACTOSIDE]  min        4.84
 8     Cc1ncc(CO)c(C(=O)O)c1O [4-PYRIDOXATE]  min        1.28
 9         COc1cc(C=CC(=O)O)ccc1O [FERULATE]  min        2.26
10  CC(=O)NC(CC(N)=O)C(=O)O (stereo not given)  min        12.1

----------
# Procedure Details: RP, Waters CORTECS T3, 100 × 2.1 mm, 2.7 µm, 0.2 mL/min, estimated dead time 1.1 min; A: water + 0.1% formic acid, pH 3; B: methanol + 0.1% formic acid, pH 3; gradient (min/%B) 0/0 1/0 6/5 30/100 35/100 35.1/0 40/0
# Conditions Used: stereoisomer not certain
Threshold 9 min: LC retention time strictly smaller gives Met, otherwise Not met.

> print(dat)
                                   compound  qualitative.label
1    O=C(O)CCCCCC(=O)O [6-CARBOXYHEXANOATE]            Not met
2  Nc1ccn(C2OC(CO)C3OP(=O)([O-])OC32)c(=O)n1 (centres undefined) [CYTIDINE 2',3'-CYCLIC MONOPHOSPHATE]                Met
3  CSCCC(NC=O)C(=O)O [FORMYL-L-METHIONYL PEPTIDE]            Not met
4  CC(=O)NC(CC(N)=O)C(=O)O (centres undefined)                Met
5        CC(=O)NC(CCC(=O)O)C(=O)O (racemic)                Met
6  N[C@@H](Cc1ccc(O)c(O)c1)C(=O)O [3,4-DIHYDROXY-L-PHENYLALANINE]                Met
7  O=c1[nH]cnc2c1ncn2C1OC(CO)C(O)C1O (centres undefined)                Met
8                       O=C(O)CCCCCCCC(=O)O            Not met
9  Nc1ccn(C2OC(COP(=O)(O)OP(=O)(O)O)C(O)C2O)c(=O)n1 (centres undefined) [CYTIDINE 5'-DIPHOSPHATE]                Met

----------
# Procedure Details: RP, Waters CORTECS T3, 100 × 2.1 mm, 2.7 µm, 0.2 mL/min, estimated dead time 1.1 min; A: water + 0.045% formic acid + 0.11% ammonium hydroxide, pH 7; B: methanol; gradient (min/%B) 0/5 5/5 25/95 25.1/100 35/100 35.1/5 45/5
# Conditions Used: stereoisomer not certain
Property Measured: LC retention time (min)

> print(dat)
                                    molecule  data.value
 1                        Cc1ncc(CO)c(CN)c1O        1.35
 2                      CNCCc1c[nH]c2ccccc12        10.7
 3  N[C@@H](Cc1cc(I)c(Oc2ccc(O)cc2)c(I)c1)C(=O)O        17.2
 4         O=c1cccc[nH]1 [2-HYDROXYPYRIDINE]        2.92
 5                          COc1cc(CCN)ccc1O        4.87
 6  CCCCCCCCCCCCCC(=O)OCC(O)CO (racemic) [RAC-GLYCEROL 1-MYRISTATE]        25.4
 7             COc1ccc2[nH]cc(CCNC(C)=O)c2c1        14.5
 8                       OCCc1c[nH]c2ccccc12        14.5
 9  C=CC1=C(C)C(C=c2[nH]c(=Cc3[nH]c(C=C4NC(=O)C(C)=C4C=C)c(C)c3CCC(=O)O)c(CCC(=O)O)c2C)=NC1=O        20.9
10  COC(=O)Cc1c[nH]c2ccccc12 [METHYL INDOLE-3-ACETATE]        17.2
11  CCCCC(CC)COC(=O)c1ccccc1C(=O)OCC(CC)CCCC (stereo not given) [BIS(2-ETHYLHEXYL)PHTHALATE]        26.7
12                     N[C@H](CO)Cc1cnc[nH]1        1.54
13  CCC=CCC1C(=O)CCC1CC(=O)OC (stereo not given) [METHYL JASMONATE]        20.3
14  O=C(O)CCCCC1SCC2NC(=O)NC21 (stereo not given)        1.35
15  CCCCCCCCCC(=O)OCC(COP(=O)([O-])OCC[N+](C)(C)C)OC(=O)CCCCCCCCC (stereo not given)          26
16  NC(=O)CCCCC1CCSS1 (stereo not given) [LIPOAMIDE]          16
17  CCCCCCCCC=CCCCCCCCC(=O)OCC(O)CO (racemic)        26.2
18  C=CC1=C(C)C(=Cc2[nH]c(Cc3[nH]c(C=C4NC(=O)C(C)=C4C=C)c(C)c3CCC(=O)O)c(CCC(=O)O)c2C)NC1=O        24.4
19                     Cn1cnc(=N)c2[nH]cnc21         3.8
20                             NCCc1cnc[nH]1        1.54

Hey, just so you know, these numbers are from the RepoRT retention time repository (doi:10.1016/j.jchromb.2020.122105).
